# assay system: GST-tagged recombinant human TYRO3 kinase domain (Homo sapiens (Human), UniProt Q06418)
# Sequence (Q06418 518-790): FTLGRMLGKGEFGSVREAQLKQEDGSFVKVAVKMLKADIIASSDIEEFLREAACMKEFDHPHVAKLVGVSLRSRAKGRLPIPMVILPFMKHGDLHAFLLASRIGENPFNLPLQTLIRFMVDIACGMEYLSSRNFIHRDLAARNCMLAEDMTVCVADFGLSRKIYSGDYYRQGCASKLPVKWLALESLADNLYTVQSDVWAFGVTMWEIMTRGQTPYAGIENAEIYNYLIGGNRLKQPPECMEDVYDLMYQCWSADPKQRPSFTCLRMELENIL
# assay text: TYRO3 Enzyme Assay (LanthaScreen Eu Kinase Binding, TR-FRET)
# condition info: averaged IC50
# Experimental: Compounds of Formula I were screened for their ability to inhibit TYRO3 kinase using Invitrogen's LanthaScreen™ Eu Kinase Binding technology. […] After a 60-minute incubation at 22° C., the reaction was measured using a PerkinElmer EnVision multimode plate reader via TR-FRET dual wavelength detection, and the percent of control (POC) calculated using a ratiometric emission factor. […] The POC values were fit to a 4 parameter logistic curve and the IC50 value is point where the curve crosses 50 POC.
pIC50: −log10 of the molar value.
property name: pIC50

Reported pIC50, compound CCNc1cc2c(cn1)c(-c1cnn(CC(C)(C)O)c1)nn2[C@H]1CC[C@@H](Oc2nccc(C(F)(F)F)c2F)CC1 [Example 300] : ____
7.00 to 8.00

Reported pIC50, compound CCNc1cc2c(cn1)c(-c1cnn(C)c1)nn2[C@H]1CC[C@@H](Oc2cccn(C)c2=O)CC1 [Example 109] : ____
5.00 to 6.00

Reported pIC50, compound CCNc1cc2c(cn1)c(-c1cnn(C[C@H](O)C(C)(C)O)c1)nn2[C@H]1CC[C@@H](Oc2ccccc2F)CC1 [Example 440] : ____
7.00 to 8.00

Reported pIC50, compound CCNc1cc2c(cn1)c(-c1cnn([C@H]3CC[C@H](O)CC3)c1)nn2[C@H]1CC[C@@H](Oc2nccc(C(F)(F)F)c2F)CC1 [Example 272] : ____
7.00 to 8.00

Reported pIC50, compound CNc1cc2c(cn1)c(-c1cnn(C[C@@H](N)CO)c1)nn2[C@H]1CC[C@@H](Oc2ccccc2F)CC1 [Example 432] : ____
> 8.00

Reported pIC50, compound CCNc1cc2c(cn1)c(-c1cnn(C[C@@H](O)CO)c1)nn2[C@H]1CC[C@@H](Oc2cccc(F)c2Cl)CC1 [Example 437] : ____
7.00 to 8.00

* * *

# assay system: GST-tagged recombinant human TYRO3 kinase domain (Homo sapiens (Human))
# assay text: TYRO3 Enzyme Assay (LanthaScreen Eu Kinase Binding, TR-FRET)
# condition info: averaged IC50
Reported values of IC50 for individual entries

Guide cases for IC50, answers given:
chem smiles	IC50
CNc1cc2c(cn1)c(-c1cnn(C(C)(C)C#N)c1)nn2[C@H]1CC[C@@H](Oc2cnn(C)c2C(F)(F)F)CC1	100 to 1000 nM
CCNc1cc2c(cn1)c(C1CCN(CCOC)CC1)nn2[C@H]1CC[C@@H](Oc2nccc(C(F)(F)F)c2F)CC1	10 to 100 nM

Reported IC50, compound CCNc1cc2c(cn1)c(C1CCN(C(=O)C(C)C)CC1)nn2[C@H]1CC[C@@H](Oc2nccc(C(F)(F)F)c2F)CC1 : ____
10 to 100 nM

* * *

Reported values of pIC50 for individual entries
# assay system: GST-tagged recombinant human TYRO3 kinase domain (Homo sapiens (Human))
# assay text: TYRO3 Enzyme Assay (LanthaScreen Eu Kinase Binding, TR-FRET)
# condition info: averaged IC50
pIC50: −log10 of the molar value. Where a name gives a salt, the structure may show the parent alone.

Guide cases for pIC50, answers given:
compound	pIC50
CCNc1cc2c(cn1)c(C1CCCCC1)nn2[C@H]1CC[C@@H](Oc2nccc(C(F)(F)F)c2F)CC1	5.00 to 6.00
CCNc1cc2c(cn1)c(-c1ccn(C)c(=O)c1)nn2[C@H]1CC[C@@H](Oc2cccnc2C(F)(F)F)CC1 [Example 219, hydrochloride]	> 8.00
CCNc1cc2c(cn1)c(-c1cnn(C[C@H](O)C(C)(C)O)c1)nn2[C@H]1CC[C@@H](Oc2ccc(F)cc2F)CC1	7.00 to 8.00

Reported pIC50, compound CNc1cc2c(cn1)c(-c1cnn(C)c1)nn2[C@H]1CC[C@@H](Oc2ccc(=O)n(CC(C)C)n2)CC1 : ____
5.00 to 6.00

Reported pIC50, compound Cn1cc(-c2nn([C@H]3CC[C@@H](Oc4cccnc4C(F)(F)F)CC3)c3cc(Nc4ccccc4)ncc23)cn1 : ____
> 8.00

Reported pIC50, compound CCNc1cc2c(cn1)c(C1CCN(C)CC1)nn2[C@H]1CC[C@@H](Oc2nccc(C(F)(F)F)c2F)CC1 : ____
7.00 to 8.00
